- target.system: CRF-stimulated adenylate cyclase
- assay.remarks: Inhibition of CRF-stimulated adenylate cyclase activity (rat frontal cortex)
- Assay type: biochemical
- condition.parameters: Table I, Formula I; 1 μM oCRF; 37° C., 10 minutes
Give log10 of IC50 for every item shown.
Values reflect log10 of reported IC50 (µM).

Query: // returns reported log10 of IC50 for input `CCCn1c(C)c(SC#N)c(=O)n1-c1ccccc1`
Reply: 1.23

Query: So what's the measured log10 of IC50 for this one? `Cc1c(SC#N)c(=O)n(-c2ccccc2)n1C`
Reply: 1.29

Query: If you can, please state the reported log10 of IC50 value of `Cc1c(SC#N)c(=O)n(C2CCCCC2)n1C` .
Reply: 1.55

Query: Could you share which log10 of IC50 value was measured for `CC(=O)Sc1c(C)n(C)n(-c2ccccc2)c1=O` ?
Reply: 0.46

Query: Which value of log10 of IC50 has been reported for `CCc1c(SC#N)c(=O)n(-c2ccccc2)n1C` in the records?
Reply: 1.50

Query: Recorded log10 of IC50 for `Cc1c(SC(Cl)(Cl)Cl)c(=O)n(-c2ccccc2)n1C` , please?
Reply: 0.98

Query: Which measured log10 of IC50 value corresponds to `Cn1c(N)c(SC#N)c(=O)n1-c1ccccc1` ?
Reply: 1.70

Query: log10 of IC50 lookup needed for `CCn1c(C)c(SC#N)c(=O)n1Cc1ccccc1` , thanks.
Reply: 1.60

Query: Value lookup for log10 of IC50; key = `CCn1c(C)c(SC#N)c(=O)n1-c1cccc(Cl)c1`
Reply: 0.84

Query: For `CCn1c(C)c(SC#N)c(=O)n1-c1ccccc1` , what is its reported log10 of IC50?
Reply: 0.81

Query: For `CCc1c(SC#N)c(=O)n(CC)n1CC` , what is its reported log10 of IC50?
Reply: 1.65

Query: // query log10 of IC50 value for entry `CC(=O)Nc1cccc(-c2c(SC#N)c(=O)n(-c3ccccc3)n2C)c1`
Reply: 0.48

Query: Any idea what log10 of IC50 was measured for `CCn1c(C)c(SC#N)c(=O)n1-c1ccc(Cl)c(Cl)c1` ?
Reply: 0.15

Query: What value of log10 of IC50 has been recorded for this entry: `Cc1c(SC#N)c(=O)n(-c2c(Cl)cccc2Cl)n1C`
Reply: 1.48

Query: Can you share its log10 of IC50? I mean this compound: `Cc1c(SC#N)c(=O)[nH]n1-c1ccc([N+](=O)[O-])cc1`
Reply: 1.84

Query: I have this compound here, `Cc1c(SC#N)c(=O)n(-c2cccc(C#N)c2)n1C` , and I need its recorded log10 of IC50.
Reply: 0.84

Query: Consider the compound shown here: `Cc1c(SC#N)c(=O)n(C)n1Cc1ccccc1` What is its recorded log10 of IC50?
Reply: 1.60

Query: Given `Cc1ccc(-n2c(=O)c(SC#N)c(C)n2C)cc1` , state its recorded log10 of IC50.
Reply: 0.96

Query: # query: log10 of IC50 of entry `Cc1c(SC#N)c(=O)n(-c2ccccc2)n1-c1ccccc1`
Reply: 0.79

Query: Fill in: log10 of IC50 of `CCc1c(SC#N)c(=O)n(-c2ccc(OC)cc2)n1C` is ___
Reply: 1.08

Query: I am curious: what log10 of IC50 value has been reported for `CCn1c(C)c(SC#N)c(=O)n1-c1ccc([N+](=O)[O-])cc1` ?
Reply: 0.30

Query: Would you kindly share the measured log10 of IC50 for `CCn1c(C)c(SC#N)c(=O)n1CC` ?
Reply: 1.47

Query: If you can, please state the reported log10 of IC50 value of `CCn1c(C)c(SC#N)c(=O)n1-c1ccc(S(C)(=O)=O)cc1` .
Reply: 1.06
